molecular target: HIV-1 Env of Q461.e2 (HIV-1); experiment: cell-based or functional assay
quantity-name: neutralization IC50

Form: binder = CAP256-VRC26.11 (antibody, V domains shown) VH: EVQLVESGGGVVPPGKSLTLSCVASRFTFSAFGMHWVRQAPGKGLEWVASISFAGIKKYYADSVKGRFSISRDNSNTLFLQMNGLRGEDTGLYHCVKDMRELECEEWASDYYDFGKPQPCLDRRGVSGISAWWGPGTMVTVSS VL: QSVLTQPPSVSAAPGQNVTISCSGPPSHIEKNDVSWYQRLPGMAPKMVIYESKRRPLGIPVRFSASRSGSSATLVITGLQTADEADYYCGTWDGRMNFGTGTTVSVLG ; neutralization IC50 = > 50 µg/mL

Form: binder = CAP256-VRC26.03 (antibody, V domains shown) VH: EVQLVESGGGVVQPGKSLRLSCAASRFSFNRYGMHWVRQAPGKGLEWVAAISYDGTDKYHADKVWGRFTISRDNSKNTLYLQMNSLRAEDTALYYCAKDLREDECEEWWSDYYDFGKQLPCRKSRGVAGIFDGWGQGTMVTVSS VL: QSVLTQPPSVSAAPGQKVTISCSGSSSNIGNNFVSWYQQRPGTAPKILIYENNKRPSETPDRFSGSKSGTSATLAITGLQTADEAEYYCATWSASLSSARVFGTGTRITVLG ; neutralization IC50 = > 50 µg/mL

Form: binder = CAP256-VRC26.08 (antibody, V domains shown) VH: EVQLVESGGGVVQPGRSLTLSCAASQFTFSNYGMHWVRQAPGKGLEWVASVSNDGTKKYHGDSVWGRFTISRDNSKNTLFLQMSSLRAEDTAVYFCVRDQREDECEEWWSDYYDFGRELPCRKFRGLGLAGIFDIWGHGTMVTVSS VL: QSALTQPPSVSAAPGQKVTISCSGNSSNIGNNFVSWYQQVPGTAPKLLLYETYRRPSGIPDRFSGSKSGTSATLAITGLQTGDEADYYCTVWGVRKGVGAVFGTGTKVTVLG ; neutralization IC50 = 0.969 µg/mL

Form: binder = CAP256-VRC26.02 (antibody, V domains shown) VH: EVQLVESGGGVVQPGRSLRLSCAASQFSFGNYGMHWVRQAPGKGLEWVAAISFAGTKTNYADSVKGRFTISRDNSKNTVYLQMNSLRAEDTALYFCAKDIREYECEYWTSDYYDFGRPQPCIDSRGVVGTFDVWGQGTMVTVSS VL: QSVLTQPPSVSAAPGQKVTISCSGSNSNIGNKDVSWYQQIPATAPKLLIYENNKRPSGISDRFSGSKSGTSATLAITGLQTGDEADYYCATWDGRVSVIGTGTNVIVLG ; neutralization IC50 = > 50 µg/mL

meta.source: patent US20200199204A1
